Attribution: PubChem BioAssay

Molecular target: Calmodulin-1 (Homo sapiens) (UniProt P0DP23)
Test: CALM1 binders on microarrays, EGTA buffer, profiling panel, biochemical, small-molecule microarray, Cy5-labelled CALM1 (AID 1111);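 further: labelled calmodulin applied in Tris saline Tween buffer holding calcium plus EGTA and DTT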
Details: Cy5-CALM1 binding fluorescence, higher = more signal
Quantity Measured: composite z-score
Answers are plain numbers.

Study these solved cases before continuing.
[
  {
    "Molecule": "CCCCCCc1nc(-c2cc(C)c(OC)c(C)c2)cc2c1[Si](C(C)C)(C(C)C)O[C@H]2c1ccccc1",
    "composite z-score": -0.482
  },
  {
    "Molecule": "COC(=O)[C@@]1(Cc2ccccc2CN=[N+]=[N-])N=C(c2ccc(OCCCO)cc2)O[C@H]1c1ccccc1N=[N+]=[N-]",
    "composite z-score": 0.173
  },
  {
    "Molecule": "CO[C@@H]1COC(=O)[C@H](C)NC(=O)CC=C[C@@H](C)[C@H](OC)COC(=O)[C@H](C)NC(=O)CC=C[C@H]1C",
    "composite z-score": -0.202
  },
  {
    "Molecule": "O=C1C2C=CC(C(O)c3ccccc3)N(n3cnnc3)C2C(=O)N1Cc1ccccc1 (stereo not given)",
    "composite z-score": 0.206
  }
]

Next up:
What reported composite z-score corresponds to `CCCC=C(CCC)[C@@H](NS(=O)(=O)c1ccc(C(F)(F)F)cc1)c1ccc(-c2ccccc2)cc1` on Calmodulin-1 (Homo sapiens) (UniProt P0DP23)? 1.06
